// data source = patent US10093670B2

What Emax was measured for each of the following?
- target_of_assay: human AMPK α1β1γ1 enzyme (Homo sapiens, UniProt Q13131+Q9Y478)
- Construct: purchased Carna Biosciences, Inc
- Sequence (Q13131 10-559 limits assumed): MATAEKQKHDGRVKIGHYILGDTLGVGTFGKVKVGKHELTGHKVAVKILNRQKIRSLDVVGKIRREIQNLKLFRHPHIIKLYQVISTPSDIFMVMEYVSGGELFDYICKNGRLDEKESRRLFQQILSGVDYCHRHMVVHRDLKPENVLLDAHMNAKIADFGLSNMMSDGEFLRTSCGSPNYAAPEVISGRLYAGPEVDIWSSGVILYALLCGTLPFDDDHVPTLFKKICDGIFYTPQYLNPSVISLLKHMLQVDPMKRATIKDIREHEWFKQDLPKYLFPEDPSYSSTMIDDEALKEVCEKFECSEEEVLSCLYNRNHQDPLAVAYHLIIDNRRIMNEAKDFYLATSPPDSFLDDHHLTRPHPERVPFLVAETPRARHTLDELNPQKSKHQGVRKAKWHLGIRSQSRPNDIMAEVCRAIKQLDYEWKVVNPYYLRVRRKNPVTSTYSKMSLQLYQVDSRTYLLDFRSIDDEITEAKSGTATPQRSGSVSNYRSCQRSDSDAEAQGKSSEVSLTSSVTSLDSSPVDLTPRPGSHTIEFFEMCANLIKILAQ
- Sequence (Q9Y478 whole entry): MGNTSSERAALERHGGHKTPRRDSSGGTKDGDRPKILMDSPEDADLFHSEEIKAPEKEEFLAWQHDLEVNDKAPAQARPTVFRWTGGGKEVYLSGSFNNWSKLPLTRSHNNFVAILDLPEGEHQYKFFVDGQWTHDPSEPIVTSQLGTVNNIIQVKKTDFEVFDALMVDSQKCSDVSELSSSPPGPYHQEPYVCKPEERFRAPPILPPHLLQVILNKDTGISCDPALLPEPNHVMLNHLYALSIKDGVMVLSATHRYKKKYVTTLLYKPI
- Sequence (P54619 whole entry partner): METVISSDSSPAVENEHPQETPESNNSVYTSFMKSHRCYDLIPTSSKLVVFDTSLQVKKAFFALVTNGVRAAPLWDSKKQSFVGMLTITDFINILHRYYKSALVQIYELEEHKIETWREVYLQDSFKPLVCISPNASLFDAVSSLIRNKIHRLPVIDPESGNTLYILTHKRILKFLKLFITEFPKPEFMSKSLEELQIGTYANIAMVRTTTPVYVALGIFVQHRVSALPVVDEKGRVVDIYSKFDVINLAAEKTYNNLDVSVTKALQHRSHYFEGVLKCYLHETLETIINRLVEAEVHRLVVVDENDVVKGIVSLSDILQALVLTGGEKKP
- protocol_text: Evaluation of AMPK activator, Test Example 1 (mobility-shift kinase assay, FL-Peptide 7)
- Format: biochemical
- test_context: human AMPK α1β1γ1, relative to control (100%); read-out: Emax (maximum rate of increase in activity within the measurement range)
Numbers only, in %.

Solved entries:
* CC(=O)NC1CC=C(c2ccc(-c3nc4nc(O[C@H]5CC[C@H](CC(=O)O)CC5)[nH]c4cc3Cl)cc2)CC1 (stereo partly drawn) | 232
* CN(C)C(=O)N1CC=C(c2ccc(-c3nc4nc(O[C@H]5CC[C@H](C(C)(C)C(=O)O)CC5)[nH]c4cc3Cl)cc2)CC1 | 276
* CC(C)(COc1nc2nc(-c3ccc(N4CCOCC4)cc3)c(Cl)cc2[nH]1)C(=O)O | 212
* CCC(Oc1nc2nc(-c3ccc(C4=CCC(NC(C)=O)CC4)cc3)c(Cl)cc2[nH]1)C(N)=O (stereo not drawn) | 228

Please supply Emax for each of the following items, keeping them in order.
1. CC(C)(CO)C1CCC(Oc2nc3nc(-c4ccc(N5CCOCC5)cc4)c(Cl)cc3[nH]2)CC1 (stereo not drawn)
2. Oc1cc(COc2nc3nc(-c4ccc(N5CCOCC5)cc4)c(Cl)cc3[nH]2)on1

1. 236
2. 263
